molecular target: Torsin-1A (Homo sapiens); experiment: small-molecule binders of mutant TOR1A in lysate, primary screen, cell lysate, small-molecule microarray, COS7 lysate, 635/667 nm fluorescence (AID 1150); details: COS7 hTOR1A mutant lysate, 635 nm fluorescence, higher = more signal;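 note: score pools 667 nm emission and signal to noise measuring lysate protein binding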
Response field class: string, computed from recorded composite z-score by ranges I: < 0.3; II: ≥ 0.3 and < 0.7; III: ≥ 0.7

Consider the worked cases shown below.
compound | group label
COC(=O)[C@@]1(Cc2ccc(OC)cc2)[C@H]2c3cc(C(=O)N4CCCC4)n(Cc4ccc(O)c(OC)c4)c3C[C@H]2CN1C(=O)c1ccccc1 | II
[N-]=[N+]=NCc1ccccc1C[C@]1(C(N)=O)COC(c2ccc(OCCCO)cc2)=N1 | III
NC(=O)NCC#Cc1ccc2c(c1)[C@]1(C(=O)N2)[C@H](C(N)=O)[C@H]2C(=O)O[C@H](c3ccccc3)[C@H](c3ccccc3)N2[C@@H]1c1ccc(O)cc1 | III
Oc1ccc2cc[n+](Cc3sc4ccccc4c3Cl)cc2c1 | I
COC(=O)[C@@]1(Cc2ccccc2)[C@H]2c3cc(C(=O)N4CCCC4)n(Cc4ccc(S(C)(=O)=O)cc4)c3C[C@H]2CN1C(=O)c1ccccc1 | III
CCCc1cc2c(n1Cc1cc(F)cc(F)c1)C(C)C1CN(C(=O)c3ccccc3)C(C)(C(=O)OC)C21 (centres undefined) | III

# input Class for CCOC(=O)C[C@H]1[C@H](OC(=O)c2ccccc2-c2ccccc2)[C@@H](NC(=O)CC(C)C)c2cc(OCCCO)ccc2N1C(=O)Cc1ccc(OC)cc1 ?
# output I

# input Class for C=C[C@H](OC)[C@@H](OC(=O)Nc1ccc(OC)cc1)c1ccc(O)c(F)c1 ?
# output I

# input Class for CN1C(=O)C2C=CC(C(O)c3ccccc3)N(N(c3ccccc3)c3ccccc3)C2C1=O (centres undefined) ?
# output I

# input Class for C=CCOC(=O)[C@H]1[C@@H]2C(=O)O[C@@H](c3ccccc3)[C@@H](c3ccccc3)N2[C@@H](c2ccc(OCCOC(=O)[C@H]3C[C@H]4C(=O)N[C@@H](CCCC[N+](C)(C)C)C(=O)N4[C@H]3c3ccc(O)cc3)cc2)[C@]12C(=O)Nc1ccc(I)cc12 ?
# output I

# input Class for COCCOC(=O)N1C(=O)[C@@]2(c3cc(C#CCC(C(=O)OC)C(=O)OC)ccc31)[C@H](C(=O)N1CCN(c3ncccn3)CC1)[C@H]1C(=O)O[C@H](c3ccccc3)[C@H](c3ccccc3)N1[C@@H]2c1ccccc1OCCO ?
# output II

# input Class for C=CC1(C(=O)OC)CC=C(C(=O)OC)CC1 (centres undefined) ?
# output III

# input Class for CO[C@H]1O[C@H](CO)[C@@H](OC(=O)Nc2cccc(F)c2)[C@H](OC(=O)Nc2ccccc2)[C@@H]1OC(=O)Nc1ccccc1 ?
# output II

# input Class for O=C(NCCN1CCOCC1)[C@@H]1c2ccccc2C(=O)N(C2CCCCC2)[C@H]1c1ccc(CO)cc1 ?
# output I
